# tested.on: T1, canine IL-31 protein (Canine_IL31)
# T1 chain: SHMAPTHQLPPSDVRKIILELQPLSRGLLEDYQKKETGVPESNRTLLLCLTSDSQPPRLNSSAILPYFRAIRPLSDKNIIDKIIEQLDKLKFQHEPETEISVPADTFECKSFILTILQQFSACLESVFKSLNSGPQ
# method.description: Biacore
assay.metric: Kd (nM)
Number only, in nM; omit the unit.

Example cases with answers are listed next.
* Feline_11E12 1.1_K46Q (antibody, V domains shown) VH: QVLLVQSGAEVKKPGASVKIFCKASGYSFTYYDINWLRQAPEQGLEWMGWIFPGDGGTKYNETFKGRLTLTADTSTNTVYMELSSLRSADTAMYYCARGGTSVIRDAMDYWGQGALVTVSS VL: EIQMTQSPSSLSASPGDRVTITCRASESVDNYGISFMHWYQQKPGQVPKLLIYRASNLESGVPSRFSGSGSGTDFTLTISSLEPEDAATYYCQQSNKDPLTFGQGT | 1.91
* Feline 15H05 2.2 (antibody, V domains shown) VH: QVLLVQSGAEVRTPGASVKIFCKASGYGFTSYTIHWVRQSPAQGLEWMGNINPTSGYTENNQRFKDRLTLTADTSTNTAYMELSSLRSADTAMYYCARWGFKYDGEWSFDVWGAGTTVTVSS VL: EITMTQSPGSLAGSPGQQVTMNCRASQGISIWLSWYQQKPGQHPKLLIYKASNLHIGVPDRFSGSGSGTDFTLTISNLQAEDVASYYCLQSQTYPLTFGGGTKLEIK | 0.393
* Feline 15H05 1.1 (antibody, V domains shown) VH: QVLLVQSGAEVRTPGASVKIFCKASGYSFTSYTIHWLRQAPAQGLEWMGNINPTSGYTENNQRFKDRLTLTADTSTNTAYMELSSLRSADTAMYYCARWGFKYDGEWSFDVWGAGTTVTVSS VL: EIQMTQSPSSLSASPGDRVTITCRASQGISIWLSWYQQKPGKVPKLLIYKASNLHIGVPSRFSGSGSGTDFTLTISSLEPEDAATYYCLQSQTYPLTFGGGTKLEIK | 0.00504
* Feline 15H05 3.2 (antibody, V domains shown) VH: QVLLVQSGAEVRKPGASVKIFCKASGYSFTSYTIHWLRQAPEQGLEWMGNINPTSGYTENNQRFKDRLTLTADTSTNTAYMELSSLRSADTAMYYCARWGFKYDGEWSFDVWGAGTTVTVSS VL: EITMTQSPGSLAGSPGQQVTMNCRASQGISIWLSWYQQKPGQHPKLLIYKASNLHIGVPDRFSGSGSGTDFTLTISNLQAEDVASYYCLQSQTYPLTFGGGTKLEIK | 0.204
* Feline 15H05 1.2 (antibody, V domains shown) VH: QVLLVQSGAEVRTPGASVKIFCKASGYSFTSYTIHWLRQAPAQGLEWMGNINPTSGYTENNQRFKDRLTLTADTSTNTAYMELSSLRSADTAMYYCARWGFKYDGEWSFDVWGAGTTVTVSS VL: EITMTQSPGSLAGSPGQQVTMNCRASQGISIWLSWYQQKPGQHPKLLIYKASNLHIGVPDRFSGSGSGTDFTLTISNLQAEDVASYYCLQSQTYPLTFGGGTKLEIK | 3.48

Turning to the following binder.
Looking up Feline 15H05 1.3 (antibody, V domains shown) VH: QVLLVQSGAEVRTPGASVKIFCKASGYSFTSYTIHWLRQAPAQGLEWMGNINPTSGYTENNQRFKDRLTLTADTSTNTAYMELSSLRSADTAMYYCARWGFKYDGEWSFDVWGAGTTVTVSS VL: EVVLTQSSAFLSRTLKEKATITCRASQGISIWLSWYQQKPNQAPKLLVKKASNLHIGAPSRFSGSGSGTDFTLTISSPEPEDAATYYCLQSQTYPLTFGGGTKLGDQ , I see its Kd listed as 6.38
